# ASSAY_NAME: Half life in Sprague-Dawley rat at 1 mg/kg, iv
# Assay type: ADME, organism-based
# Parameters: dose 1 mg/kg, route intravenous
# EXPERIMENTAL_CONTEXT: in vivo
ASSAY_METRIC: half-life (min)

Below are worked cases with known answers.
INSERT INTO assay_data (compound, units_of_measure, reported_result) VALUES
  ('Cn1c(C2CCOCC2)nc(C(=O)NCc2ccc(F)cc2S(C)(=O)=O)c(O)c1=O', 'min', 34.8),
  ('Cn1ncnc1-c1cc(F)ccc1CNC(=O)c1nc(C2CCOC2)n(C)c(=O)c1O (racemic)', 'min', 30),
  ('Cn1c(C2CCOC2)nc(C(=O)NCc2ccc(F)cc2N2CCCCS2(=O)=O)c(O)c1=O (racemic)', 'min', 32.4);

[A] COCCN1CCN(c2cc(F)ccc2CNC(=O)c2nc(C3CCOC3)n(C)c(=O)c2O)C1=O (racemic)
[B] CSC1COCC1c1nc(C(=O)NCc2ccc(F)cc2)c(O)c(=O)n1C (racemic)
Problem: Among A and B , which shows a numerically higher half-life result? Provide the label of your selected option as the answer.
Result: B
(B: 64.8 min, A: 27.6 min)
